All values here come from PubChem BioAssay (NCI).

Kindly supply the reported TGI values for the records listed here.
# Tested on: MOLT-4 leukemia
# protocol_summary: NCI tumour cell line growth inhibition, 48 h
Answers are plain numbers, in µM.

* N=C(N)SCCN1CCCCC1 | 58

Look at each molecule and report its TGI.
1. COC(=O)/C=C/C(=O)Nc1cc(Cl)c(Cl)cc1CC(=O)N(C)[C@H]1CCCC[C@@H]1N1CCCC1
2. CNC(=O)OCc1nc(N=[N+]=[N-])n(C)c1COC(=O)NC
3. COc1cc(/C=C2\CCCC3=C2N=C2SC(C)=CN2C3c2cc(OC)c(OC)c(OC)c2)cc(OC)c1OC (stereo unspecified)
4. O=C(Nc1nc(-c2ccccc2)cs1)c1cc(O)c(O)c(O)c1
5. CCCC(=O)O[C@]1(C)CC[C@@H]2[C@H]3[C@@H]1[C@@H]1C/C(C)=C\CC[C@](C)(OC(=O)[C@@H]2C)[C@H]3O1
6. CC(C)(C)OC(=O)NCC(=O)N(CCc1ccc(Cl)c(Cl)c1)CCN1CCCC1

1: 13.8; 2: 88.3; 3: 6.43; 4: 19.4; 5: 30.5; 6: 28.5

* * *

Kindly state TGI for each of the entries shown.
# Tested on: HL-60(TB) leukemia
# protocol_summary: NCI tumour cell line growth inhibition, 48 h

Recorded results for 4 molecules are shown here.
* COc1ccccc1Nc1nc2ccccc2c2occc12 | > 50 µM
* CCN(CC)c1ccc2cc(-c3csc(C)n3)c(=O)oc2c1 | > 100 µM
* N#Cc1nc(-c2ccc(-c3nc(C#N)c(N)o3)cc2)oc1N | > 10 µM
* Nc1ccc(S(=O)(=O)NCCS(=O)(=O)O)cc1 | > 100 µM

Attention now shifts to the item below.
What the record says about Cc1ncc([N+](=O)[O-])n1CCNC(=O)Cn1ccnc1[N+](=O)[O-] : TGI is > 100 µM

* * *

# Test system: K-562 leukemia
# protocol_summary: NCI tumour cell line growth inhibition, 48 h
attribute_measured: TGI

Please state, for each entry, its recorded TGI.
1. CCOC(=O)N1CCc2cc(OC)c(OC)cc2/C1=C/c1ccc(OC)c(OC)c1
2. CCNC1=C(NC(=O)c2ccc(OC)cc2)C(=O)c2ccccc2C1=O
3. COC(=O)C1=C(C(=O)OC)C(OO)(c2ccccc2)OC1=O (stereo not given)
4. CC(C)(C)OC(=O)NC(Cc1ccc(OCc2ccccc2)cn1)C(N)=O (stereo not given)
5. Cc1ncc(COP(=O)(O)O)c(C)c1O

["> 100 µM", "> 100 µM", "> 100 µM", "> 100 µM", "> 100 µM"]

Quick one: give me TGI for each item below, same order please.
1. Nc1ncnc2c1ncn2[C@@H]1C[C@H](NO)[C@@H](O)[C@H]1O
2. CNc1cccc2c1C(C)C[C@]1(C)C(=O)Nc3ccccc3[C@H]21 (stereo not given in full)
3. CNC(C)[C@H]1CCC2C3CCC4C[C@@H](N(C)C(=O)c5ccccc5)CC[C@]4(C)C3CC[C@@]21C (stereo not given in full)
4. N=C(N)SCCN1CCCCC1
5. O=[N+]([O-])c1cc2ccc1OCc1cccc(n1)COc1ccc(cc1[N+](=O)[O-])C=NCCCCCCCCN=C2
6. C/C=C/C=C/CCCCCCCCCCCCC[C@]1(OC)C=CC(CC(=O)OC)OO1 (stereo not given in full)

1: > 100 µM; 2: > 100 µM; 3: 2.46 µM; 4: 62.1 µM; 5: > 100 µM; 6: 52.1 µM

For each listed entry, give its TGI.
1. O=c1[nH]c2cc3[nH]c(=O)c(=O)[nH]c3cc2[nH]c1=O
2. COc1ccc(OC)c([N+](=O)[O-])c1-c1nc2sc(C)c(C)n2c1/C=N/N=C(N)N

["> 100 µM", "> 100 µM"]

# map each compound to its TGI
1. C/C(=C1/N=C(c2ccccc2)OC1=O)c1ccccc1
2. CC(C)(C)CN1[C@@H]2CCCC[C@H]2N(CC(C)(C)C)P1(=O)C(O)/C=C/c1ccccc1 (stereo not given in full)

["> 100 µM", "> 100 µM"]
